Source listed as the supplement of paper PMC10567573.

# Protocol Notes: protein stability index of a GFP-peptide fusion (GPS, HEK-293T) (PSI 1-6); higher = more stable;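 further: 24-mer peptide tiles fused after GFP, lentivirally expressed, FACS-sorted into six equal bins by GFP/DsRed ratio, decoded by Illumina sequencing, PSI is the read-weighted mean bin number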
# Setup Conditions: treatment: DMSO; c terminus: a fixed tail appended
Would you kindly list protein stability index for each of these sequences?
One number for each entry.

Some entries whose results are on file:
RQVEKRRNSGPVVEKLKQMQEFFG [MMP1]	3.04
QMGVSAKRRPKAQPTTLVLPPQYV [MED27]	2.99
DQAGGEGKHITVFKTYISPWERAM [MYOZ1]	2.91
KKKKIGFYFEVCGMMVESVNAKTL [PCDHGA10]	2.28
YFFLCQPFREILCKKLHIPLKAQN [P2RY14]	2.62

// batch mode: one protein stability index value per listed entry
1. ASPMSADRVVAFMDHIRIFQEQVE [NR2F2]
2. KLQQLPADFGRLVNLQHLDLLNNK [LRRC59]
3. MCNVKAPLGSPSPRPRRAKRFASL [ADAMTS4]
4. IQAINGESTELMTHLEAQNRIKGC [PDLIM4]

1. 2.8
2. 2.97
3. 3.69
4. 4.1
